Reported Dynamic elasticity (cmH2O./mL) by item:
System: mice with bleomycin-induced pulmonary fibrosis
Test: Pulmonary function (Flexivent) in mice with pulmonary fibrosis
Format: in vivo, C57BL/6 mice
Conditions: Table 3 groups, 2 mg/kg i.p.; 28th day after model construction
Bridge positions count the residues as written; N and C are the ends. Square brackets hold non-standard residues; d marks the D form. Peptide text beside a SMILES is read from it. S5 = C=CCCC[C@](C)(N)C(=O)O
Measurement type: Dynamic elasticity (cmH2O./mL)

compound="CC(C)C[C@H](NC(=O)[C@H](CCCCN)NC(=O)[C@H](CCCCN)NC(=O)[C@H](C)NC(=O)[C@H](CS)NC(=O)[C@]1(C)CCCC=CCCC[C@](C)(NC(=O)[C@H](CC(C)C)NC(=O)[C@@H](N)Cc2c[nH]cn2)C(=O)N[C@@H](C)C(=O)N[C@@H](CS)C(=O)N[C@@H](Cc2ccccc2)C(=O)N1)C(=O)N[C@@H](CCCCN)C(=O)N[C@@H](CCCCN)C(=O)N[C@@H](CCCNC(=N)N)C(=O)O [S3] (H-HL[S5]ACF[S5]CAKKLKKR-OH; staple 3-7; N-terminus and C-terminus assumed)" measurement_type="Dynamic elasticity (cmH2O./mL)" recorded_value=47
compound="CSCC[C@H](NC(=O)[C@H](CC(C)C)NC(=O)[C@@H](N)Cc1c[nH]cn1)C(=O)N[C@@H](C)C(=O)N[C@@H](CS)C(=O)N[C@@H](Cc1ccccc1)C(=O)N[C@H](C(=O)N[C@@H](CS)C(=O)N[C@@H](C)C(=O)N[C@@H](CCCCN)C(=O)N[C@@]1(C)CCCC=CCCC[C@@](C)(C(=O)O)NC(=O)[C@H](CCCCN)NC(=O)[C@H](CCCCN)NC(=O)[C@H](CC(C)C)NC1=O)[C@@H](C)O [S11] (H-HLMACFTCAK[S5]LKK[S5]-OH; staple 11-15; N-terminus and C-terminus assumed)" measurement_type="Dynamic elasticity (cmH2O./mL)" recorded_value=53

###

Test system: mice with bleomycin-induced pulmonary fibrosis
Experiment: Lung weight index in mice with pulmonary fibrosis
Format: in vivo, C57BL/6 mice
Settings: Table 3 groups, 2 mg/kg i.p.; after 28 days; lung weight (mg) divided by body weight (g)
Bridge positions count the residues as written; N and C are the ends. Square brackets hold non-standard residues; d marks the D form. Peptide text beside a SMILES is read from it. S5 = C=CCCC[C@](C)(N)C(=O)O
So basically, if Lung weight index comes in under 9 it's class 1, and if it's 9 or more it's class 0.

compound="CSCC[C@H](NC(=O)[C@H](CC(C)C)NC(=O)[C@@H](N)Cc1c[nH]cn1)C(=O)N[C@@H](C)C(=O)N[C@@H](CS)C(=O)N[C@@]1(C)CCCC=CCCC[C@@](C)(C(=O)N[C@@H](CCCCN)C(=O)N[C@@H](CC(C)C)C(=O)N[C@@H](CCCCN)C(=O)N[C@@H](CCCCN)C(=O)N[C@@H](CCCNC(=N)N)C(=O)O)NC(=O)[C@H](C)NC(=O)[C@H](CS)NC(=O)[C@H]([C@@H](C)O)NC1=O [S6] (H-HLMAC[S5]TCA[S5]KLKKR-OH; staple 6-10; N-terminus and C-terminus assumed)" assayed_system="mice with bleomycin-induced pulmonary fibrosis" class_name="class 0"
compound="CSCC[C@H](NC(=O)[C@H](CC(C)C)NC(=O)[C@@H](N)Cc1c[nH]cn1)C(=O)N[C@@H](C)C(=O)N[C@@]1(C)CCCC=CCCC[C@@](C)(C(=O)N[C@@H](CCCCN)C(=O)N[C@@H](CCCCN)C(=O)N[C@@H](CC(C)C)C(=O)N[C@@H](CCCCN)C(=O)N[C@@H](CCCCN)C(=O)N[C@@H](CCCNC(=N)N)C(=O)O)NC(=O)[C@H](CS)NC(=O)[C@H]([C@@H](C)O)NC(=O)[C@H](Cc2ccccc2)NC1=O [S5] (H-HLMA[S5]FTC[S5]KKLKKR-OH; staple 5-9; N-terminus and C-terminus assumed)" assayed_system="mice with bleomycin-induced pulmonary fibrosis" class_name="class 1"
compound="CSCC[C@H](NC(=O)[C@H](CC(C)C)NC(=O)[C@@H](N)Cc1c[nH]cn1)C(=O)N[C@@H](C)C(=O)N[C@@H](CS)C(=O)N[C@@H](Cc1ccccc1)C(=O)N[C@H](C(=O)N[C@@H](CS)C(=O)N[C@@H](C)C(=O)N[C@@H](CCCCN)C(=O)N[C@@]1(C)CCCC=CCCC[C@@](C)(C(=O)O)NC(=O)[C@H](CCCCN)NC(=O)[C@H](CCCCN)NC(=O)[C@H](CC(C)C)NC1=O)[C@@H](C)O [S11] (H-HLMACFTCAK[S5]LKK[S5]-OH; staple 11-15; N-terminus and C-terminus assumed)" assayed_system="mice with bleomycin-induced pulmonary fibrosis" class_name="class 0"
compound="CSCC[C@H](NC(=O)[C@H](CC(C)C)NC(=O)[C@@H](N)Cc1c[nH]cn1)C(=O)N[C@@H](C)C(=O)N[C@@H](CS)C(=O)N[C@@H](Cc1ccccc1)C(=O)N[C@H](C(=O)N[C@@H](CS)C(=O)N[C@@H](C)C(=O)N[C@@H](CCCCN)C(=O)N[C@@H](CCCCN)C(=O)N[C@@H](CC(C)C)C(=O)N[C@@H](CCCCN)C(=O)N[C@@H](CCCCN)C(=O)N[C@@H](CCCNC(=N)N)C(=O)O)[C@@H](C)O [MR2] (H-HLMACFTCAKKLKKR-OH; N-terminus and C-terminus assumed)" assayed_system="mice with bleomycin-induced pulmonary fibrosis" class_name="class 0"
compound="CSCC[C@@H]1NC(=O)[C@H](CC(C)C)NC(=O)[C@@](C)(N)CCCC=CCCC[C@@](C)(C(=O)N[C@@H](Cc2ccccc2)C(=O)N[C@H](C(=O)N[C@@H](CS)C(=O)N[C@@H](C)C(=O)N[C@@H](CCCCN)C(=O)N[C@@H](CCCCN)C(=O)N[C@@H](CC(C)C)C(=O)N[C@@H](CCCCN)C(=O)N[C@@H](CCCCN)C(=O)N[C@@H](CCCNC(=N)N)C(=O)O)[C@@H](C)O)NC(=O)[C@H](C)NC1=O [S1] (H-[S5]LMA[S5]FTCAKKLKKR-OH; staple 1-5; N-terminus and C-terminus assumed)" assayed_system="mice with bleomycin-induced pulmonary fibrosis" class_name="class 1"

###

System: mice with bleomycin-induced pulmonary fibrosis
Assay: Pulmonary function (Flexivent) in mice with pulmonary fibrosis
Assay type: in vivo, C57BL/6 mice
Settings: Table 3 groups, 2 mg/kg i.p.; 28th day after model construction
Bridge positions count the residues as written; N and C are the ends. Square brackets hold non-standard residues; d marks the D form. Peptide text beside a SMILES is read from it. S5 = C=CCCC[C@](C)(N)C(=O)O
Measurement type: Dynamic resistance (cmH2O · s/Ml)

compound="CSCC[C@H](NC(=O)[C@H](CC(C)C)NC(=O)[C@@H](N)Cc1c[nH]cn1)C(=O)N[C@@H](C)C(=O)N[C@@H](CS)C(=O)N[C@@H](Cc1ccccc1)C(=O)N[C@H](C(=O)N[C@@H](CS)C(=O)N[C@@H](C)C(=O)N[C@@H](CCCCN)C(=O)N[C@@]1(C)CCCC=CCCC[C@@](C)(C(=O)O)NC(=O)[C@H](CCCCN)NC(=O)[C@H](CCCCN)NC(=O)[C@H](CC(C)C)NC1=O)[C@@H](C)O [S11] (H-HLMACFTCAK[S5]LKK[S5]-OH; staple 11-15; N-terminus and C-terminus assumed)" unit_string="cmH2O · s/Ml" recorded_value=1.267
compound="CSCC[C@H](NC(=O)[C@H](CC(C)C)NC(=O)[C@@H](N)Cc1c[nH]cn1)C(=O)N[C@@H](C)C(=O)N[C@@H](CS)C(=O)N[C@@H](Cc1ccccc1)C(=O)N[C@H](C(=O)N[C@@]1(C)CCCC=CCCC[C@@](C)(C(=O)N[C@@H](CCCCN)C(=O)N[C@@H](CCCCN)C(=O)N[C@@H](CCCNC(=N)N)C(=O)O)NC(=O)[C@H](CCCCN)NC(=O)[C@H](CCCCN)NC(=O)[C@H](C)NC1=O)[C@@H](C)O [S8] (H-HLMACFT[S5]AKK[S5]KKR-OH; staple 8-12; N-terminus and C-terminus assumed)" unit_string="cmH2O · s/Ml" recorded_value=1.35

###

Tested on: mice with bleomycin-induced pulmonary fibrosis
Experiment: Pulmonary function (Flexivent) in mice with pulmonary fibrosis
Type: in vivo, C57BL/6 mice
Details: Table 3 groups, 2 mg/kg i.p.; 28th day after model construction
Bridge positions count the residues as written; N and C are the ends. Square brackets hold non-standard residues; d marks the D form. Peptide text beside a SMILES is read from it. S5 = C=CCCC[C@](C)(N)C(=O)O
Measurement type: Dynamic elasticity (cmH2O./mL)

molecule="CSCC[C@H](NC(=O)[C@H](CC(C)C)NC(=O)[C@@H](N)Cc1c[nH]cn1)C(=O)N[C@@]1(C)CCCC=CCCC[C@@](C)(C(=O)N[C@@H](C)C(=O)N[C@@H](CCCCN)C(=O)N[C@@H](CCCCN)C(=O)N[C@@H](CC(C)C)C(=O)N[C@@H](CCCCN)C(=O)N[C@@H](CCCCN)C(=O)N[C@@H](CCCNC(=N)N)C(=O)O)NC(=O)[C@H]([C@@H](C)O)NC(=O)[C@H](Cc2ccccc2)NC(=O)[C@H](CS)NC1=O [S4] (H-HLM[S5]CFT[S5]AKKLKKR-OH; staple 4-8; N-terminus and C-terminus assumed)" assayed_system="mice with bleomycin-induced pulmonary fibrosis" measurement_type="Dynamic elasticity (cmH2O./mL)" unit_string=cmH2O./mL recorded_value=59.33
molecule="CSCC[C@@H]1NC(=O)[C@@](C)(NC(=O)[C@@H](N)Cc2c[nH]cn2)CCCC=CCCC[C@@](C)(C(=O)N[C@H](C(=O)N[C@@H](CS)C(=O)N[C@@H](C)C(=O)N[C@@H](CCCCN)C(=O)N[C@@H](CCCCN)C(=O)N[C@@H](CC(C)C)C(=O)N[C@@H](CCCCN)C(=O)N[C@@H](CCCCN)C(=O)N[C@@H](CCCNC(=N)N)C(=O)O)[C@@H](C)O)NC(=O)[C@H](CS)NC(=O)[C@H](C)NC1=O [S2] (H-H[S5]MAC[S5]TCAKKLKKR-OH; staple 2-6; N-terminus and C-terminus assumed)" assayed_system="mice with bleomycin-induced pulmonary fibrosis" measurement_type="Dynamic elasticity (cmH2O./mL)" unit_string=cmH2O./mL recorded_value=55.33
molecule="CSCC[C@H](NC(=O)[C@H](CC(C)C)NC(=O)[C@@H](N)Cc1c[nH]cn1)C(=O)N[C@@H](C)C(=O)N[C@@H](CS)C(=O)N[C@@H](Cc1ccccc1)C(=O)N[C@H](C(=O)N[C@@]1(C)CCCC=CCCC[C@@](C)(C(=O)N[C@@H](CCCCN)C(=O)N[C@@H](CCCCN)C(=O)N[C@@H](CCCNC(=N)N)C(=O)O)NC(=O)[C@H](CCCCN)NC(=O)[C@H](CCCCN)NC(=O)[C@H](C)NC1=O)[C@@H](C)O [S8] (H-HLMACFT[S5]AKK[S5]KKR-OH; staple 8-12; N-terminus and C-terminus assumed)" assayed_system="mice with bleomycin-induced pulmonary fibrosis" measurement_type="Dynamic elasticity (cmH2O./mL)" unit_string=cmH2O./mL recorded_value=66.5
molecule="CSCC[C@@H]1NC(=O)[C@H](CC(C)C)NC(=O)[C@@](C)(N)CCCC=CCCC[C@@](C)(C(=O)N[C@@H](Cc2ccccc2)C(=O)N[C@H](C(=O)N[C@@H](CS)C(=O)N[C@@H](C)C(=O)N[C@@H](CCCCN)C(=O)N[C@@H](CCCCN)C(=O)N[C@@H](CC(C)C)C(=O)N[C@@H](CCCCN)C(=O)N[C@@H](CCCCN)C(=O)N[C@@H](CCCNC(=N)N)C(=O)O)[C@@H](C)O)NC(=O)[C@H](C)NC1=O [S1] (H-[S5]LMA[S5]FTCAKKLKKR-OH; staple 1-5; N-terminus and C-terminus assumed)" assayed_system="mice with bleomycin-induced pulmonary fibrosis" measurement_type="Dynamic elasticity (cmH2O./mL)" unit_string=cmH2O./mL recorded_value=52.17
